So I've got a bunch of compounds here, and I need their % REDUCTION LIPASE ACTIVITY values.
System: lipase
Assay: Lipase activity of stool-free, urine-free pure lipase composition with lipase-inhibiting agent (Examples VI, VII)
Type: biochemical
Settings: Example VI; pure lipase composition; 100 mM
One number for each entry, in %.

Illustrative cases are given below, each with its answer.
compound | unit of measure | numeric readout
[Cl][Sn][Cl] [SnCl2, tin(II)chloride] | % | 97
[Cl-].[Cl-].[Zn+2] [ZnCl2, zinc chloride] | % | 98
O.O.O.O.O.O.[Cl-].[Cl-].[Cl-].[Fe+3] [FeCl3.6H2 O, iron(III)chloride hexahydrate] | % | 100
O=S(=O)([O-])[O-].[Cu+2] [CuSO4, copper sulfate] | % | 59

Query string: // query % REDUCTION LIPASE ACTIVITY value for entry [Cl][Co][Cl] [CoCl2, cobalt chloride]
Result string: 81
